Target: CDK1/cyclinB1 (Homo sapiens, UniProt P06493)
Sequence (P06493 whole entry): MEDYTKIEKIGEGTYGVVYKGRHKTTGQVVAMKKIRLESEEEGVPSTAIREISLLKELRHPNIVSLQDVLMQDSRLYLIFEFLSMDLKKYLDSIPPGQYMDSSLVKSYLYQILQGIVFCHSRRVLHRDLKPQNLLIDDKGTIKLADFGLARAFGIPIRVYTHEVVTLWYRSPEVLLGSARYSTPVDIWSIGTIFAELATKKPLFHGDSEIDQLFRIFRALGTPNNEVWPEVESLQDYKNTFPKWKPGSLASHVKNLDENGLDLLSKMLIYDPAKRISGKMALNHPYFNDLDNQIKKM
Sequence (P14635 whole entry partner): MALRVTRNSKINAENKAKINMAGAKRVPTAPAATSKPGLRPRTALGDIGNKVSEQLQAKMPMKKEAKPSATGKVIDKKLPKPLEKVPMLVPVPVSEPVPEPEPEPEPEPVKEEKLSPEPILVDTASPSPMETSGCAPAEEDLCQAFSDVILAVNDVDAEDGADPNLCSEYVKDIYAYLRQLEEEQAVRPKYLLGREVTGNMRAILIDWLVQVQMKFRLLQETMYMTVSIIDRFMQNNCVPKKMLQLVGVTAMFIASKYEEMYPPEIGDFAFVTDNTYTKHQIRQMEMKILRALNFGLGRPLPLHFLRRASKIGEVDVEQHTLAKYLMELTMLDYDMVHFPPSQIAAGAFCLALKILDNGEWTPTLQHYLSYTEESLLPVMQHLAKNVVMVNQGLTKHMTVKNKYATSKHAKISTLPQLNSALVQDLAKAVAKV
Test: Cyclin-dependent kinase activity assay (continuous ATP coupling assay), CDK1/cyclinB1
Details: CDK1/cyclinB1 10 nM, ATP 200 μM, Histone1 copeptide 100 μM, 15 min preincubation, pH 7.5, 1% DMSO
Recorded measurements of IC50, one per entry

Solved entries:
                                   molecule  observation_type  value_measured
0  CNS(=O)(=O)c1ccc(Nc2ncc(C)c(-n3cc(CC(C)(C)O)cn3)n2)cc1              IC50        ≥ 100 nM
1  CNS(=O)(=O)c1ccc(Nc2ncc(C(F)(F)F)c(-n3cc([C@H]4CC[C@H](O)C4)cn3)n2)cc1 (single isomer, unassigned)              IC50    10 to 100 nM

Specify measured IC50 for O=S(=O)(NCC1(O)CC1)c1ccc(Nc2ncc(C(F)(F)F)c(-n3cccn3)n2)cc1 .
≥ 100 nM

Specify measured IC50 for CN1CCN(S(=O)(=O)c2ccc(Nc3ncc(C(F)(F)F)c(-n4cccn4)n3)cc2)CC1 .
≥ 100 nM
